Target: E. coli purine nucleoside phosphorylase (PNP) (Escherichia coli, UniProt P0ABP8)
Sequence (P0ABP8 2-239): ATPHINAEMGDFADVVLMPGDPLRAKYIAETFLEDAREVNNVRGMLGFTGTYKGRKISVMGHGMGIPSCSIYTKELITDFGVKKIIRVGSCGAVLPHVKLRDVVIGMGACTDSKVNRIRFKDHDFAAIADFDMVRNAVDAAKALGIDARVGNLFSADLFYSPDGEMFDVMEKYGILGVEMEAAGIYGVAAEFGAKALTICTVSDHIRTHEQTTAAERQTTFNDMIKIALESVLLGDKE
Test: HPLC inosine phosphorolysis assay with recombinant enzyme, non-competitive inhibition kinetics
Measured pKi values are reported for all entries that follow.
Note on units: pKi is unitless, being -log10 of a concentration expressed in mol/L.

Nc1ncccc1-c1cnn([C@@H]2C[C@H](O)[C@@H](O)[C@H]2O)c1 = 1.85
Nc1ncncc1-c1cnn([C@@H]2C[C@H](O)[C@@H](O)[C@H]2O)c1 = 1.62

For the next question, use this compound.
Consider the compound Nc1ccncc1-c1cnn([C@@H]2C[C@H](O)[C@@H](O)[C@H]2O)c1 and give its measured pKi.
1.77

The reported measurements were obtained from paper PMC9114674.
